Tested on: HEK-293T
method_description: Incucyte cell viability with HEK293T; further: filed as whole numbers so only -1 and 0 and 1 occur
Type: toxicity, cell-based
condition_info: human, 0 h, 10 µM, compound concentration 10 uM, replicate number 2, timepoint 0 hours
endpoint_name: Growth Rate

Example results:
Cc1cc(C)cc(C(=O)N(C)[C@H](Cc2ccc(-c3ccccc3)cc2)C(=O)N[C@@H](Cc2c[nH]c3ccccc23)C(=O)O)c1 : 0
C[C@@H]1CCc2ncc(F)cc2[C@H]2CCCN2c2ccn3ncc(c3n2)C(=O)N1 : 1
O=C(Nc1cccc2c(=O)cc(-c3nnn[nH]3)oc12)c1ccc(OCCCCc2ccccc2)cc1 : 0

I need Growth Rate for every entry listed below, if you could help.
1. CCC(=O)N[C@H]1CC[C@@H](C(=O)N(C)c2ccc(-c3nc4ccccc4o3)cc2)C1
2. Clc1cc2c(NC3CCCC3)nnc(-c3ccncc3)c2cc1Cl
3. CN(C)C(=O)Cn1cc(-c2nc(C3(c4ccc(-c5cnc(N)nc5)cc4)CC3)no2)cn1
4. CC(C)Oc1ccc(-c2nn([C@@H](C)c3oc4ccc(F)cc4c(=O)c3-c3cccc(F)c3)c3ncnc(N)c23)cc1F

Result string:
[1, 0, 1, 0]

* * *

Tested on: U2OS
method_description: Multiplex assay against U2OS
Assay type: toxicity, cell-based
condition_info: human, 48 h, 1 µM, compound concentration 1 uM, replicate 2
Can you tell me Population Pyknosed Nuclei (%) for the items I'm about to list?
One number for each entry, in %.

Example results:
COc1cc2c(NC3CCN(C(C)C)CC3)nc(N3CCC(F)(F)CC3)nc2cc1OCCCN1CCCC1 : 12
Cc1nc(Cc2cccc(C(F)(F)F)c2)sc1-c1ccc(C(N)=O)nc1 [TP-024n] : 3
CNc1oc(-c2cccc3ccccc23)nc1C#N : 2

I need Population Pyknosed Nuclei (%) for every entry listed below, if you could help.
1. Cc1cc2c(cc1N1C(=O)c3cccc4c(CCCO)ccc(c34)C1=O)n(C)c(=O)n2C
2. CCn1c(-c2nonc2N)nc2cnc(Oc3cccc(NC(=O)c4ccc(OCCN5CCOCC5)cc4)c3)cc21 [GSK-269962A]

Result string:
1: 3; 2: 9

* * *

Test system: U2OS
method_description: Multiplex assay against U2OS
Format: toxicity, cell-based
condition_info: human, 12 h, 10 µM, compound concentration 10 uM, replicate 1
param class (str): category from Population Mitochondria Different-Phenotype (%); see ranges low (below 10%), moderate (10% to below 40%), high (40% or more)

Observe how each entry below is paired with its result.
CN(C)CCOc1ccc(-c2nc(-c3ccncc3)c(-c3ccc4c(c3)CC/C4=N\O)[nH]2)cc1 : moderate
Cl.Cl.NC1(c2ccc(-c3nc4ccn5c(=O)[nH]nc5c4cc3-c3ccccc3)cc2)CCC1 : high

Query string: Where would `CCOc1cc(N2CCC(O)CC2)ccc1Nc1ncc2c(n1)N(C1CCCC1)CCC(=O)N2C` land among the classes by reported Population Mitochondria Different-Phenotype (%)?
Result string: moderate

Query string: Where would `N#Cc1cnc(Nc2cc(NC[C@H]3CNCCO3)c(C(F)(F)F)cn2)cn1` land among the classes by reported Population Mitochondria Different-Phenotype (%)?
Result string: low

Query string: Where would `CC(C)N1CCC(C)(C)c2cc(C#Cc3ccc(C(=O)O)cc3)ccc21` land among the classes by reported Population Mitochondria Different-Phenotype (%)?
Result string: low

Query string: Where would `c1ccc2oc(-c3csc(C4CCN(Cc5nc6ncccc6[nH]5)CC4)n3)cc2c1` land among the classes by reported Population Mitochondria Different-Phenotype (%)?
Result string: moderate

Query string: Where would `Cc1cc2c(cc1N1C(=O)c3cccc4c(CCCO)ccc(c34)C1=O)n(C)c(=O)n2C` land among the classes by reported Population Mitochondria Different-Phenotype (%)?
Result string: high

Query string: Where would `CNc1oc(-c2cccc3ccccc23)nc1C#N` land among the classes by reported Population Mitochondria Different-Phenotype (%)?
Result string: moderate

Query string: Where would `Nc1nc2c(c(N3CCNCC3)n1)CCC1=C2[C@@H]2CCCC[C@@H]2O1` land among the classes by reported Population Mitochondria Different-Phenotype (%)?
Result string: high

* * *

System: Fibroblast
method_description: Multiplex assay against human fibroblast
Assay type: toxicity, cell-based
condition_info: 24 h, 10 µM, compound concentration 10 uM, replicate 1
Can you tell me Total Cell Count for the items I'm about to list?
Answers are plain numbers.

Example results:
CCOc1cc2ncc(C#N)c(Nc3ccc(OCc4cccc(F)c4)c(Cl)c3)c2cc1NC(=O)/C=C/CN(C)C : 409
CCn1c(-c2nonc2N)nc2cnc(Oc3cccc(NC(=O)c4ccc(OCCN5CCOCC5)cc4)c3)cc21 [GSK-269962A] : 258
Cc1cc2c(cc1N1C(=O)c3cccc4c(CCCO)ccc(c34)C1=O)n(C)c(=O)n2C : 115

Next up:
Query string: Give Total Cell Count (Fibroblast) of the following compound: `Cl.Cl.NC1(c2ccc(-c3nc4ccn5c(=O)[nH]nc5c4cc3-c3ccccc3)cc2)CCC1`
Result string: 622

* * *

Test system: Fibroblast
method_description: Multiplex assay against human fibroblast
Assay type: toxicity, cell-based
condition_info: 12 h, 10 µM, compound concentration 10 uM, replicate 2
Can you tell me Population Pyknosed Nuclei (%) for the items I'm about to list?
One number for each entry, in %.

Example results:
Cc1nc(Cc2cccc(C(F)(F)F)c2)sc1-c1ccc(C(N)=O)nc1 [TP-024n] : 14
CC(C)N1CCC(C)(C)c2cc(C#Cc3ccc(C(=O)O)cc3)ccc21 : 0
CNC(=O)c1cc(Oc2ccc(NC(=O)Nc3cc(C(C)(C)C)nn3-c3ccc4ncccc4c3)c(F)c2)ccn1 : 21
COc1cc2c(NC3CCN(C(C)C)CC3)nc(N3CCC(F)(F)CC3)nc2cc1OCCCN1CCCC1 : 11
CCOc1cc2ncc(C#N)c(Nc3ccc(OCc4cccc(F)c4)c(Cl)c3)c2cc1NC(=O)/C=C/CN(C)C : 17

I need Population Pyknosed Nuclei (%) for every entry listed below, if you could help.
1. c1ccc2oc(-c3csc(C4CCN(Cc5nc6ncccc6[nH]5)CC4)n3)cc2c1
2. CCn1c(-c2nonc2N)nc2cnc(Oc3cccc(NC(=O)c4ccc(OCCN5CCOCC5)cc4)c3)cc21 [GSK-269962A]
3. Cc1cc2c(cc1N1C(=O)c3cccc4c(CCCO)ccc(c34)C1=O)n(C)c(=O)n2C
4. Nc1ccc(C(=O)Nc2cccc(-c3nc(N4CCOCC4)c4oc5ncccc5c4n3)c2)cn1
5. CC(C)(C)c1cnc(CSc2cnc(NC(=O)C3CCNCC3)s2)o1

Result string:
1: 6; 2: 22; 3: 16; 4: 22; 5: 21

* * *

System: U2OS
method_description: Multiplex assay against U2OS
Assay type: toxicity, cell-based
condition_info: human, 12 h, 10 µM, compound concentration 10 uM, replicate 1
Can you tell me Population Mitotic Cells (%) for the items I'm about to list?
One number for each entry, in %.

Example results:
CCCn1c(=O)c2[nH]c(C34CC5CC(CC3C5)C4)nc2n(CCC)c1=O [ROLOFYLLINE] : 41
COc1ccc(NS(=O)(=O)c2sc3ccc(Cl)cc3c2C)cc1N1CCNCC1.Cl : 56
c1ccc2oc(-c3csc(C4CCN(Cc5nc6ncccc6[nH]5)CC4)n3)cc2c1 : 57

I need Population Mitotic Cells (%) for every entry listed below, if you could help.
1. CN(C)CCOc1ccc(-c2nc(-c3ccncc3)c(-c3ccc4c(c3)CC/C4=N\O)[nH]2)cc1 [SB590885]
2. Nc1nc2c(c(N3CCNCC3)n1)CCC1=C2[C@@H]2CCCC[C@@H]2O1
3. Cc1cc2c(cc1N1C(=O)c3cccc4c(CCCO)ccc(c34)C1=O)n(C)c(=O)n2C
4. CC(=O)c1cc(-c2cc(C(=O)NC3CC3)ccc2C)c2ncccn12
5. CCC(=O)O[C@]1(C(=O)SCF)[C@H](C)C[C@H]2[C@@H]3C[C@H](F)C4=CC(=O)C=C[C@]4(C)[C@@]3(F)[C@@H](O)C[C@@]21C [FLUTICASONE PROPIONATE]
6. CN(C)C/C=C/C(=O)Nc1cc2c(Nc3ccc(F)c(Cl)c3)ncnc2cc1O[C@H]1CCOC1.O=C(O)/C=C\C(=O)O.O=C(O)/C=C\C(=O)O [AFATINIB DIMALEATE]
7. CCOc1cc(N2CCC(O)CC2)ccc1Nc1ncc2c(n1)N(C1CCCC1)CCC(=O)N2C
8. Cc1nc(Cc2cccc(C(F)(F)F)c2)sc1-c1ccc(C(N)=O)nc1 [TP-024n]

Result string:
[57, 73, 45, 56, 46, 37, 72, 54]

* * *

Tested on: HEK-293T
method_description: Multiplex assay against HEK293T
Assay type: toxicity, cell-based
condition_info: human, 48 h, 10 µM, compound concentration 10 uM, replicate 2
Can you tell me Population Apoptotic (%) for the items I'm about to list?
Answers are plain numbers, in %.

Example results:
Cc1nc(Cc2cccc(C(F)(F)F)c2)sc1-c1ccc(C(N)=O)nc1 [TP-024n] : 46
CC(C)Oc1ccc(C(=O)N[C@H](CNC(=O)CN(C)C)Cc2ccc(-c3cn4cccc([C@H](C)O)c4n3)cc2)cc1Cl [GSK-923295A] : 75
COc1cc2c(NC3CCN(C(C)C)CC3)nc(N3CCC(F)(F)CC3)nc2cc1OCCCN1CCCC1 : 94

Query string: Which Population Apoptotic (%) reading was recorded for the compound `COc1cc(N2CCC(N(C)C)CC2)ccc1Nc1ncc(Cl)c(Nc2ccccc2P(C)(C)=O)n1` ?
Result string: 91
